Just for reference, ChEMBL document CHEMBL1124622 is where these values come from.

Parameter: MIC. Scope: all listed entries.
- Tested on: Vaccinia virus
- PROTOCOL: Minimum inhibitory concentration against Vaccinia virus in primary rabbit kidney cell cultures
- Format: functional
- CONDITIONS USED: Orthopoxvirus vaccinia

Some compounds with known MIC results, for comparison:
Cc1cn([C@H]2C[C@@H](C#N)[C@@H](CO)O2)c(=O)[nH]c1=O	> 400 µg/mL
CC(C)(C)[Si](C)(C)OC[C@H]1O[C@@H](n2ccc(=O)[nH]c2=O)[C@H](O[Si](C)(C)C(C)(C)C)[C@@H]1C#N	> 4 µg/mL
Cc1cn(C2CC(C#N)C(CO[Si](C)(C)C(C)(C)C)O2)c(=O)[nH]c1=O (stereo not given)	> 40 µg/mL

Data point: `N#C[C@H]1[C@@H](O)[C@H](n2ccc(=O)[nH]c2=O)O[C@@H]1CO` ; MIC = > 200 µg/mL
